Assay: Toxicity in iv dosed Kunming mouse assessed as lethal dose
Assay type: organism-based
Conditions: in vivo
Please use fulfilled for LD50 under 20000 µmol/kg and not fulfilled for everything else, ties included.

* CC(C)c1cccc(C(C)C)c1OC(=O)CCCOC(=O)CN1CCCC1.Cl | not fulfilled
* CC1CCCN(CCCC(=O)OCCCC(=O)Oc2c(C(C)C)cccc2C(C)C)C1.Cl (configuration not stated) | fulfilled
* CC1CCCN(CC(=O)OCCCC(=O)Oc2c(C(C)C)cccc2C(C)C)C1.Cl (configuration not stated) | fulfilled
* CC(C)c1cccc(C(C)C)c1OC(=O)CCCOC(=O)CCCN1CCCC1.Cl | not fulfilled
* CC1CCCN(CCC(=O)Oc2c(C(C)C)cccc2C(C)C)C1.Cl (configuration not stated) | not fulfilled
* CC1CCN(CC(=O)Oc2c(C(C)C)cccc2C(C)C)CC1.Cl | fulfilled
* CC(C)c1cccc(C(C)C)c1OC(=O)CCN1CCCCC1.Cl | not fulfilled
* CC(C)c1cccc(C(C)C)c1OC(=O)CCCOC(=O)CCCN1CCCCC1C.Cl (configuration not stated) | not fulfilled
* CCN1CCN(CCC(=O)Oc2c(C(C)C)cccc2C(C)C)CC1.Cl | not fulfilled
* CC(C)c1cccc(C(C)C)c1OC(=O)CCCOC(=O)CN1CCOCC1.Cl | not fulfilled
* CC(C)c1cccc(C(C)C)c1OC(=O)CCCOC(=O)CCCN1CCCCC1.Cl | fulfilled
* CC(C)c1cccc(C(C)C)c1OC(=O)CCN1CCCC1.Cl | fulfilled
* CC(C)c1cccc(C(C)C)c1OC(=O)CN1CCCCC1C.Cl (configuration not stated) | fulfilled
* CCCN(CCC)CCCC(=O)OCCCC(=O)Oc1c(C(C)C)cccc1C(C)C.Cl | not fulfilled
* CCCN(CCC)CC(=O)OCCCC(=O)Oc1c(C(C)C)cccc1C(C)C.Cl | not fulfilled
* CCN(CC)CCCC(=O)OCCCC(=O)Oc1c(C(C)C)cccc1C(C)C.Cl | not fulfilled
* CCN(CC)CC(=O)OCCCC(=O)Oc1c(C(C)C)cccc1C(C)C.Cl | not fulfilled
* CC(C)c1cccc(C(C)C)c1OC(=O)CCCOC(=O)CCCN1CCOCC1.Cl | fulfilled
* CCN1CCN(CC(=O)Oc2c(C(C)C)cccc2C(C)C)CC1.Cl | fulfilled
* CC1CCN(CCC(=O)Oc2c(C(C)C)cccc2C(C)C)CC1.Cl | not fulfilled
* CC(C)c1cccc(C(C)C)c1OC(=O)CCN1CCOCC1.Cl | not fulfilled
* CC1CCN(CCCC(=O)OCCCC(=O)Oc2c(C(C)C)cccc2C(C)C)CC1.Cl | fulfilled
